Target: T1, human DLL3-his protein (human, UniProt Q9NYJ7 27-492)
T1 construct: also called human DLL3 protein; DLL3 antigen protein; not shown: His tag
T1 sequence: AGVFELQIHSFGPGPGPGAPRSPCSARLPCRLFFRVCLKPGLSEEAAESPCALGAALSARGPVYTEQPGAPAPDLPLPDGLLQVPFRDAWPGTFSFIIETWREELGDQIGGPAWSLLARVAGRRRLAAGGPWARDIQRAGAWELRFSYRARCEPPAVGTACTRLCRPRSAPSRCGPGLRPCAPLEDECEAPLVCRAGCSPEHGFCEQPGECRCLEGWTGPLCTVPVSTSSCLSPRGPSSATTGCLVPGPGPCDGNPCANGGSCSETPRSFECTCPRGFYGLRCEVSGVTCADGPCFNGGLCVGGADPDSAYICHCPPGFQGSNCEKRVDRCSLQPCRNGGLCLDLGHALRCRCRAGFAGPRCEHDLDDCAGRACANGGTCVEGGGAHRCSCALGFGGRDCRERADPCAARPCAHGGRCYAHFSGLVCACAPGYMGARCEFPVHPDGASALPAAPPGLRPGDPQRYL
Test: ELISA

| Binder | binding result |
| --- | --- |
| Hab015VL5VH5a-hFc (Fc fusion, humanized mab015, VL-linker-VH-human IgG1 Fc; also called Hab015L5H5a; not shown: linker; human IgG1 Fc fragment) scFv (part 1 of 2): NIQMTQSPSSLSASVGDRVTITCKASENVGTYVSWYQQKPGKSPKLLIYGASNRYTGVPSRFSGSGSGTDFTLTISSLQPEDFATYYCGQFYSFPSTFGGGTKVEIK scFv (part 2 of 2): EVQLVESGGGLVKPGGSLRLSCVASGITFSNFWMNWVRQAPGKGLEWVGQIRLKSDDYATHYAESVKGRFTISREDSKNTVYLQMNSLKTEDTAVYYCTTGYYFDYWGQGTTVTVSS | binds |
| mab009 scFv-hFc (Fc fusion, human-murine chimeric scFv-hFc, VL-linker-VH-human IgG1 Fc; not shown: linker; Fc fragment of human IgG1) scFv (part 1 of 2): DIVMTQSPATLSVTPGDRVSLSCRASQTISDYLHWYQQRSHESPRLLIKYASQSISGIPSRFSGSGSGSDFTLSINSVEPEDVGVYYCQNGHSFPLTFGAGTKLELK scFv (part 2 of 2): EVQLQQSGTVLARPGASVKMSCKTSGYTFTSYWMHWVKQSPGQGLEWIGTIYPGNSDTRYNQKFKDKAYVTAVTSASTAYMELSSLTNEESAVYYCTRSYDYGDLDYWGQGTTLTVSS | binds |
